Where do the numbers come from? From PubChem BioAssay (NCI).

Test system: T-47D breast
Assay: NCI tumour cell line growth inhibition, 48 h
measured quantity: TGI

A selection of reference data follows.
| compound | experimental system | TGI |
| --- | --- | --- |
| COC(=O)/C=C(\C(=O)OC)C1C(=O)Oc2c(C)c(=O)c3ccccc3n21 (configuration not stated) | T-47D breast | > 100 µM |
| COC(=O)C1c2cc3c(cc2C(OC2OC(C)C(OC)C(C)(OC)C2OC)CC1(C)O)C(=O)c1c(O)cc2c(c1C3=O)OC1OC2(C)C(O)C([N+](C)(C)[O-])C1O (configuration not stated) | T-47D breast | 0.847 µM |
| Cn1c(=O)c2c(ncn2CCNC(CO)C(O)c2ccc([N+](=O)[O-])cc2)n(C)c1=O (configuration not stated) | T-47D breast | > 100 µM |
| COc1cccc(C2c3cc4c(cc3OC(N3CCCCC3)C2C)OCO4)c1O (configuration not stated) | T-47D breast | 80 µM |
| N#Cc1n[nH]n(-c2ccc(Br)cc2)c1=O | T-47D breast | > 100 µM |

For C=CCn1c(N)c(C#N)c(C#N)c1-c1ccccc1 , what is its reported TGI?
> 100 µM

# repeat for CN=C(n1ccnc1)n1ccnc1
> 100 µM

Could you do the same for COC(=O)c1ccc(/C=C/c2cc(O)ccc2O)cc1 , please?
5.32 µM

Request: O=C1Nc2cccc(Cl)c2/C1=C\c1c(Cl)nc2n1CCS2
> 100 µM

Another compound: CCOC(=O)C1=CN(C)C=C(C(=O)OCC)C1c1cc(Br)c(OCC)c(OC)c1
> 100 µM

What would you report for CC(C)NC(=O)OCc1c(COC(=O)NC(C)C)c(-c2cc[n+](COC(=O)C3CC3)cc2)n2c1CCC2 ?
> 100 µM

What about this compound? CC1(C)/C(=N\NC(N)=O)C2CCC1C2 (configuration not stated)
> 100 µM

----------
# TGI per record follows
System: UO-31 renal
Assay: NCI tumour cell line growth inhibition, 48 h

Study these solved cases before continuing.
| molecule | TGI |
| --- | --- |
| CN1CCN(C2CCN(C(=O)Nc3cc(Oc4ccc(NC(=O)C5(C(=O)Nc6ccc(F)cc6)CC5)c(F)c4)ccn3)CC2)CC1 | > 10 µM |
| CC1(C)S[C@@H]2[C@H](NC(=O)C3(N)CCCCC3)C(=O)N2[C@H]1C(=O)O | > 100 µM |

Let's switch to this molecule now.
Using the record for CCCC(=O)NC(NC1CCCCC1)(C(=O)OCC)C(F)(F)F (stereo not drawn) , report its TGI.
> 100 µM

----------
Tested on: HT29 colon
Assay: NCI tumour cell line growth inhibition, 48 h
measured quantity: TGI

Solved entries:
| smiles text | measured quantity | result |
| --- | --- | --- |
| N#CN/C(N)=N/CO | TGI | > 100 µM |
| O=c1/c(=C/c2ccccc2[N+](=O)[O-])sc2nnc(-c3ccco3)n12 | TGI | > 100 µM |

Then there is this molecule:
I have this molecule here, Cn1c(I)c(C#CCO[Si](C)(C)C(C)(C)C)c(=O)[nH]c1=O , and I need its recorded TGI.
39.7 µM

----------
Test system: ACHN renal
Test: NCI tumour cell line growth inhibition, 48 h
measured quantity: TGI (µM)
Report only the number, with the unit µM understood.

| molecule | experimental system | TGI (µM) |
| --- | --- | --- |
| NC(=O)/C=C/C(=O)c1c(Cl)cccc1Cl | ACHN renal | 0.853 |

Name the reported TGI value associated with the molecule C[N+](C)(C)CC1CCCc2ccccc2C1=O (stereo not given)
9.71

----------
The entries below are paired with their reported TGI.
System: HS 578T breast
Assay: NCI tumour cell line growth inhibition, 48 h

| compound | measured quantity | result |
| --- | --- | --- |
| CC1(C)S[C@@H]2[C@H](NC(=O)C3(N)CCCCC3)C(=O)N2[C@H]1C(=O)O | TGI | > 100 µM |
| COc1cc(OC)c2nc(C)c(CCCl)c(Cl)c2c1 | TGI | > 100 µM |
| Cn1c(I)c(C#CCO[Si](C)(C)C(C)(C)C)c(=O)[nH]c1=O | TGI | 43.4 µM |
| CCCNC(=O)NNC(=O)c1c[nH]c2nc(C)ccc2c1=O | TGI | > 100 µM |
| CCOC(=O)NC(Nc1ccc(C)cc1)(C(F)(F)F)C(F)(F)F | TGI | > 100 µM |
| COc1ccc(OC)c2c1[nH]c(=O)c1c3ccccc3cn21 | TGI | 5.06 µM |

Would you kindly look at the next entry?
// query TGI value for entry COc1cccc(F)c1C(=O)c1cnc(NC2CCN(S(C)(=O)=O)CC2)nc1N
15.9 µM

----------
Here the recorded TGI is given for each entry.
System: MCF7 breast
Assay: NCI tumour cell line growth inhibition, 48 h

| molecule | TGI |
| --- | --- |
| Nc1nn2cc(F)cnc2c1C(=O)Nc1cncc(F)c1N1CCC(C(=O)N2CCN(C3COC3)CC2)CC1 | > 100 µM |
| COC(=O)c1c(O)ccc2c1c1c(n2Cc2cc(OC)cc(OC)c2)C(=O)c2ccccc2C1 | > 100 µM |
| Cc1c(C)c2c(c(N)c1C#N)C(=O)N(NC(=O)c1ccccc1)C2=O | > 100 µM |
| Cc1ccc(SC2c3ccc(C)cc3Oc3nc(N)c(C#N)c(N)c32)cc1 (centres undefined) | 4.74 µM |
| COc1ccc(Sc2[nH]c(C(C)=O)c3ccccc23)cc1 | 24.6 µM |
| NS(=O)(=O)c1ccc(/C=C/c2ccc(O)c(O)c2)cc1 | 51.9 µM |
| c1ccc(N=C(N2CCCC2)N(CCN2CCCC2)c2ccccc2)cc1 | > 100 µM |
| C=C1C(=O)OC2CC(C)C(C(CC(C)=O)OC(C)=O)=CCC12 (centres undefined) | 18.2 µM |

Which TGI value belongs to COc1cc(OC)cc(Oc2nc3ccccc3nc2C(F)(F)F)c1 ?
> 100 µM

Item: O=C1COc2cccnc2N1CCCCO
> 100 µM

Same lookup for CC1CC(OP(=O)(OCc2ccccc2)OCc2ccccc2)[C@@H](OCc2ccccc2)C(OCc2ccccc2)C1OCc1ccccc1 (some centres undefined) , please.
> 100 µM

Thanks! And COC(=O)COc1ccccc1/C=C1\N=C(c2ccccc2)N(c2cc(C(F)(F)F)ccc2Cl)C1=O ?
> 100 µM

Similarly, [N-]=[N+]=Nc1c([N+](=O)[O-])c(=O)n(-c2ccccc2)c2ccccc12 ?
67 µM

Now this one: CC/C=C\C[C@H](O)C/C=C1/C(=O)C(Cl)=C[C@@H]1C/C=C\CCCC(=O)OC
2.44 µM

Entry CCO/C(O)=C(/C(=N)N1CCOCC1)C(=O)Nc1ccc(F)cc1 please
> 100 µM

----------
Test system: SF-268 CNS
Assay: NCI tumour cell line growth inhibition, 48 h
measured quantity: TGI

Record excerpt, results attached:
| compound | result |
| --- | --- |
| CCC12CCCN(Cc3ccccc3)C1c1c(n(C)c3ccccc13)CC2 (stereo not drawn) | > 253 µM |
| Cc1ccc(-n2cnc(C(=N)C#N)c2N)cc1 | > 100 µM |

Proceeding to the next compound to report its TGI.
# lookup: TGI of O=C1/C(=C/c2ccc(Br)s2)NC(=S)N1c1ccccc1
> 100 µM

----------
Test system: OVCAR-3 ovarian
Experiment: NCI tumour cell line growth inhibition, 48 h
Each item that follows carries a reported TGI.

Below, 3 compounds whose answers are already recorded.
| compound | measured quantity | result |
| --- | --- | --- |
| CN=C(n1ccnc1)n1ccnc1 | TGI | > 100 µM |
| C(=NCCN1CCOCC1)=NC1CCCCC1 | TGI | > 100 µM |
| O=c1cc[nH]c(=O)[nH]1 | TGI | > 1000 µM |

What reported TGI corresponds to Cc1ccc(C2SCC(=O)N2c2ccc(-n3c(-c4ccccc4)nc4ccccc4c3=O)cc2)cc1 (centres undefined) on OVCAR-3 ovarian?
51.9 µM

----------
Test system: M14 melanoma
Test: NCI tumour cell line growth inhibition, 48 h
measured quantity: TGI

| molecule | measured quantity | result |
| --- | --- | --- |
| COc1ccccc1/C=N\N/C(N)=N\N=C\c1ccccc1OC | TGI | 3.13 µM |
| COc1cc(OC)cc(Oc2nc3ccccc3nc2C(F)(F)F)c1 | TGI | > 100 µM |
| NC(=S)N/N=C(\CC1OC(=O)c2ccccc21)c1ccc(Cl)cc1 (stereo not drawn) | TGI | > 100 µM |
| CO[C@@]12C[C@@H](C)C3=CCC(C)=C3CC1=C(C)C(=O)O2 | TGI | > 100 µM |
| O=C1C2SC34c5c2c2ccccc2n5CCC3CCCN14 (stereo not drawn) | TGI | > 100 µM |
| O=c1oc2ccc3ccccc3c2cc1-c1nc2ccccc2s1 | TGI | > 100 µM |

// returns reported TGI for input CCN(CC)CCC(CNc1ccnc2cc(Cl)ccc12)c1ccc(Cl)cc1 (stereo not drawn)
0.47 µM
